# ASSAY SETUP: in methanol, 298.15 K
ENDPOINT NAME: solubility (mole fraction)
Please reply with the number alone, leaving off any unit.

Entry C[C@H](O)[C@@H](O)[C@@H](O)[C@H](O)C=O has what solubility (mole fraction)?
0.00275

Provenance of the data: BigSolDB 2.1
